molecular target: ALK (Homo sapiens); construct: host or cells: baculovirus expression system; assay: ALK Kinase Assay (ELISA/TRF, PLC-γ substrate); format: biochemical; conditions: ALK kinase inhibition, 1 μM ATP; read-out: ALK Potency
Sequence (Q9UM73 19-1620): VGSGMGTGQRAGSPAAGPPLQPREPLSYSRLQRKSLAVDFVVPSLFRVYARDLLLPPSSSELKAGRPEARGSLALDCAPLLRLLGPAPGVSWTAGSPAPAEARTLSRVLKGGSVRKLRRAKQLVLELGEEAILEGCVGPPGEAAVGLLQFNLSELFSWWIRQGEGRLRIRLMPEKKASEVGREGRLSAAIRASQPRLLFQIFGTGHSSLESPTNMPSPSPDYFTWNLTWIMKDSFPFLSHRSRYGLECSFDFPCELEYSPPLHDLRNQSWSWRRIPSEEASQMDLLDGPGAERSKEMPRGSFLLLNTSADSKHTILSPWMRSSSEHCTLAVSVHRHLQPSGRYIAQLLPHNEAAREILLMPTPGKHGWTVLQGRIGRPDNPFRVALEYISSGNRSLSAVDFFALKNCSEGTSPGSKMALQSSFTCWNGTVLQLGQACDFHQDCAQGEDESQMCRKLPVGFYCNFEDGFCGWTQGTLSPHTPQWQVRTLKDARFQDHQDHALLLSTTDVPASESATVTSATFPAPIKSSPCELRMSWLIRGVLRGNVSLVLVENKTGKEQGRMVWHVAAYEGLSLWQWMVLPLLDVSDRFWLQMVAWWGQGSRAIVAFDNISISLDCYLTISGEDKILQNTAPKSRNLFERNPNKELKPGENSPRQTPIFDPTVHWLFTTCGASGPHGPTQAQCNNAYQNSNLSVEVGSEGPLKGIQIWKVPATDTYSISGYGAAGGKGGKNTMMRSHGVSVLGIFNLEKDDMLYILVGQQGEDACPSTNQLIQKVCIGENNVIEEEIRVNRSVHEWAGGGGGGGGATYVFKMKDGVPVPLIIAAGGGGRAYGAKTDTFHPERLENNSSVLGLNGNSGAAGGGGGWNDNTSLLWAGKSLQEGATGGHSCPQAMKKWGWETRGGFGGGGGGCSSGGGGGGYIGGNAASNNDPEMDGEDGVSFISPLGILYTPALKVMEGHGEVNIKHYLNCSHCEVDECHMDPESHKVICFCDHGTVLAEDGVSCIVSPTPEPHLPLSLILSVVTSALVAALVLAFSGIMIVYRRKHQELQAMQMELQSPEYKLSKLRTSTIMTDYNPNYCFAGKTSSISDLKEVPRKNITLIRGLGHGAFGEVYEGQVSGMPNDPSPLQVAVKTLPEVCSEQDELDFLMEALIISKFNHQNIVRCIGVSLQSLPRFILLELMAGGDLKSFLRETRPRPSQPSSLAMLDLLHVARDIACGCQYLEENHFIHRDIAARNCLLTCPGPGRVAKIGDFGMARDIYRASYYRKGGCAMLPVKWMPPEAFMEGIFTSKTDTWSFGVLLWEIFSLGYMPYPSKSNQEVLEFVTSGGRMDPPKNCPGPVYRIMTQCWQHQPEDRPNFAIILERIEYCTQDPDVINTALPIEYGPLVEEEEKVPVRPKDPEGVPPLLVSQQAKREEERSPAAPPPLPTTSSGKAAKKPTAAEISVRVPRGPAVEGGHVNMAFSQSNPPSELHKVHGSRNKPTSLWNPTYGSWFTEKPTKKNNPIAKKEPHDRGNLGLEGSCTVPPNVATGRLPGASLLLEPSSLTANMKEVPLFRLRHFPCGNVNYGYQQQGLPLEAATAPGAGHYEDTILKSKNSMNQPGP
pIC50: −log10 of the molar value.
This listing pairs compounds with measured pIC50.

# example entries with known answers
COMPOUND: CC(=O)N1CCc2ccc(Nc3ncc4ccc(-c5cccc(NC(=O)C(C)(C)C)c5)n4n3)cc21
ASSAY TARGET: ALK (Homo sapiens)
pIC50: < 5.00
--
COMPOUND: CC(C)(C)NS(=O)(=O)c1cccc(-c2ccc3cnc(Nc4cncc(C(N)=O)c4)nn23)c1
ASSAY TARGET: ALK (Homo sapiens)
pIC50: < 5.00
--
COMPOUND: COc1ccccc1-c1ccc2cnc(Nc3ccc(C4CCN(CC(N)=O)CC4)c(OC)c3)nn12
ASSAY TARGET: ALK (Homo sapiens)
pIC50: > 7.00
--
COMPOUND: COc1cc(C2CCN(CC(N)=O)CC2)ccc1Nc1ncc2ccc(-c3cc(F)ccc3N(C)S(C)(=O)=O)n2n1
ASSAY TARGET: ALK (Homo sapiens)
pIC50: > 7.00
--
COMPOUND: CN1CCN(C)C(c2ccc(Nc3ncc4ccc(-c5cccc(S(=O)(=O)N6CCOCC6)c5)n4n3)cc2)C1=O (stereo not shown)
ASSAY TARGET: ALK (Homo sapiens)
pIC50: < 5.00

Ask | Please look up its pIC50: COc1cc(N2CCCN(C[C@@H](C)O)CC2)ccc1Nc1ncc2ccc(-c3ccccc3OC)n2n1
Reply | > 7.00

Ask | Okay, and CC(=O)Nc1cccc(Nc2ncc3ccc(-c4cccc(CN(C)S(C)(=O)=O)c4)n3n2)c1 ?
Reply | 5.00 to 6.00

###

biological target: JAK2 (Homo sapiens, UniProt O60674); construct: host or cells: baculovirus expression system; assay: Recombinant Human JAK2 Kinase Assay (TRF); assay type: biochemical; details: JAK2 kinase inhibition, 0.2 μM ATP; read-out: JAK2 Potency
Sequence (O60674 whole entry): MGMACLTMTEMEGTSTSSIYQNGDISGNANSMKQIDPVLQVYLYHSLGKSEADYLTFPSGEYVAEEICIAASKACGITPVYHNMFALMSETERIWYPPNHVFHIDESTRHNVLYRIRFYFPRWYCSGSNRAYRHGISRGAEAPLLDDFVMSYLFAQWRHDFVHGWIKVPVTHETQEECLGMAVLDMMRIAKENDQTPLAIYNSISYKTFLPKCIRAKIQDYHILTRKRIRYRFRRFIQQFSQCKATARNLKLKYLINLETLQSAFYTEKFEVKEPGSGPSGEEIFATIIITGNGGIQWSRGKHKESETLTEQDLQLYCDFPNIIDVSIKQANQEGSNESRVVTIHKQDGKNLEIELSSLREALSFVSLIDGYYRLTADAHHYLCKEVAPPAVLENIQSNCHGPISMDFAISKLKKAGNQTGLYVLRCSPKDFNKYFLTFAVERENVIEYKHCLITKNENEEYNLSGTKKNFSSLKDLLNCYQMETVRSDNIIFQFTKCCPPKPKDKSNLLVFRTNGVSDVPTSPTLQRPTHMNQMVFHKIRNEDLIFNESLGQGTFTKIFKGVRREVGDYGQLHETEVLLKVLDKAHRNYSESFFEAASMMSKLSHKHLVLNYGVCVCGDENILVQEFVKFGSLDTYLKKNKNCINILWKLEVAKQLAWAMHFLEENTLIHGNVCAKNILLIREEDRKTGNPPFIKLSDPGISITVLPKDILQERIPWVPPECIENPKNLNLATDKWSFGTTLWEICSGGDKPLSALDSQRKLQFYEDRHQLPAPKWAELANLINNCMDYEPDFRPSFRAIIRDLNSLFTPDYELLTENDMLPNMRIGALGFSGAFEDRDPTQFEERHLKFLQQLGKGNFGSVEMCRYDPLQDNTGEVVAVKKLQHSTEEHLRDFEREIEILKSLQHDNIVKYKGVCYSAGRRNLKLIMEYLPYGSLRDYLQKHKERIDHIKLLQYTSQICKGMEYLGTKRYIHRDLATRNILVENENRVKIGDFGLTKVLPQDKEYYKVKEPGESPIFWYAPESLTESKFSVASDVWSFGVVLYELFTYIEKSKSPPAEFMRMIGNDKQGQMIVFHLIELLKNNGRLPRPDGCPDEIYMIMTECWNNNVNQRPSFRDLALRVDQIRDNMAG
This listing pairs compounds with measured IC50.

COMPOUND: COc1ccccc1-c1ccc2cnc(Nc3cccc(C4CCN(C)CC4)c3OC)nn12
ENDPOINT NAME: IC50
MEASURED RESULT: < 100 nM
//
COMPOUND: COc1cc2c(cc1Nc1ncc3ccc(-c4ccccc4OC)n3n1)CN(C1COC1)C2
ENDPOINT NAME: IC50
MEASURED RESULT: < 100 nM
//
COMPOUND: CN1CCN(c2ccc(Nc3ncc4ccc(NCc5cccc([N+](=O)[O-])c5)n4n3)cc2)CC1
ENDPOINT NAME: IC50
MEASURED RESULT: < 100 nM
//
COMPOUND: COc1ccccc1-c1ccc2cnc(Nc3ccc(C4CC5CCC(C4)N5C)cc3)nn12 (stereo not shown)
ENDPOINT NAME: IC50
MEASURED RESULT: < 100 nM

Ask | Please look up its IC50: CCN1CCN(C(=O)c2ccc(Nc3ncc4c(-c5ccccc5OC)ccn4n3)cc2)CC1
Reply | 100 to 1000 nM

Ask | Okay, and COc1ccccc1-c1ccc2cnc(Nc3ccc4oc(C)nc4c3)nn12 ?
Reply | < 100 nM

Ask | Okay, and Cc1nc2cc(Nc3ncc4ccc(-c5cccc(S(=O)(=O)NC(C)(C)C)c5)n4n3)ccc2o1 ?
Reply | < 100 nM

Ask | Okay, and COc1cc(CN2CCN(C(=O)CN)CC2)ccc1Nc1ncc2ccc(-c3ccccc3N(C)S(C)(=O)=O)n2n1 ?
Reply | 1000 to 10000 nM

Ask | Okay, and COc1cc(CN2CCN(C(=O)OC(C)(C)C)CC2)ccc1Nc1ncc2ccc(-c3ccccc3N(C)S(C)(=O)=O)n2n1 ?
Reply | 1000 to 10000 nM

Ask | Okay, and COc1cc(C2CCN(CCO)CC2)ccc1Nc1ncc2ccc(-c3ccccc3N(C)S(C)(=O)=O)n2n1 ?
Reply | 100 to 1000 nM

###

This listing pairs compounds with measured IC50.
target: ALK (Homo sapiens); construct: host or cells: baculovirus expression system; assay: ALK Kinase Assay (ELISA/TRF, PLC-γ substrate); format: biochemical; conditions: ALK kinase inhibition, 1 μM ATP; read-out: ALK Potency

Ask | Please look up its IC50: CN1CCN(c2ccc(Nc3ncc4ccc(-c5cccc(S(C)(=O)=O)c5)n4n3)cn2)CC1 [Example 1123]
Reply | 100 to 1000 nM

Ask | Okay, and CN1Cc2ccc(Nc3ncc4ccc(-c5cccc(S(=O)(=O)NC(C)(C)C)c5)n4n3)cc2C1 [Example 936] ?
Reply | 100 to 1000 nM

###

target: ALK (Homo sapiens); construct: host or cells: baculovirus expression system; experiment: ALK Kinase Assay (ELISA/TRF, PLC-γ substrate); format: biochemical; conditions: ALK kinase inhibition, 1 μM ATP; read-out: ALK Potency
This listing pairs molecules with measured IC50.

MOLECULE: COc1ccccc1-c1ccc2cnc(Nc3cccc(C4CCN(C)CC4)c3OC)nn12 [Example 775]
ASSAY TARGET: ALK (Homo sapiens)
MEASURED RESULT: < 100 nM

MOLECULE: CC(=O)Nc1cccc(Nc2ncc3ccc(-c4cccc(C(=O)NC(C)(C)C)c4)n3n2)c1 [Example 886]
ASSAY TARGET: ALK (Homo sapiens)
MEASURED RESULT: 1000 to 10000 nM

MOLECULE: CN(c1ccccc1-c1ccc2cnc(Nc3ccc4c(c3)ncn4CCN3CCOCC3)nn12)S(C)(=O)=O [Example 1335]
ASSAY TARGET: ALK (Homo sapiens)
MEASURED RESULT: 100 to 1000 nM

MOLECULE: COc1cc(C2CCN(C(=O)OC(C)(C)C)CC2)ccc1Nc1ncc2ccc(-c3ccccc3N(C)S(C)(=O)=O)n2n1 [Example 818]
ASSAY TARGET: ALK (Homo sapiens)
MEASURED RESULT: 100 to 1000 nM

MOLECULE: c1cc(Sc2ccc3cnc(Nc4ccc(N5CCOCC5)cc4)nn23)ccn1 [Example 1116]
ASSAY TARGET: ALK (Homo sapiens)
MEASURED RESULT: 1000 to 10000 nM

Ask | Please look up its IC50: COc1cc(C2CCN(C(=O)CN(C)C)CC2)ccc1Nc1ncc2ccc(-c3ccccc3N(C)S(C)(=O)=O)n2n1 [Example 813]
Reply | < 100 nM

Ask | Okay, and COc1ccccc1-c1ccc2cnc(Nc3ccc4nc[nH]c4c3)nn12 [Example 1306] ?
Reply | 100 to 1000 nM

Ask | Okay, and CNC(=O)CN1CCC(c2ccc(Nc3ncc4ccc(-c5ccccc5OC)n4n3)c(OC)c2)CC1 [Example 867] ?
Reply | < 100 nM

###

biological target: JAK2 (Homo sapiens); construct: host or cells: baculovirus expression system; assay: Recombinant Human JAK2 Kinase Assay (TRF); type: biochemical; settings: JAK2 kinase inhibition, 0.2 μM ATP; read-out: JAK2 Potency
This listing pairs molecules with measured IC50.

MOLECULE: COc1cc(C2CCN(C(=O)CN(C)C)CC2)ccc1Nc1ncc2ccc(-c3ccccc3OC)n2n1
ASSAY TARGET: JAK2 (Homo sapiens)
IC50: 100 to 1000 nM

Ask | So what IC50 did CC(=O)Nc1cccc(Nc2ncc3ccc(-c4cccc(CN(C)S(C)(=O)=O)c4)n3n2)c1 get with JAK2 (Homo sapiens)?
Reply | < 100 nM

Ask | Okay, and CN(C)C1CCC(c2ccc(Nc3ncc4ccc(-c5cccc(S(=O)(=O)NC(C)(C)C)c5)n4n3)cc2)CC1 (stereo not shown) ?
Reply | < 100 nM

Ask | Okay, and CCN(c1ccccc1-c1ccc2cnc(Nc3ccc(C4CCN(C[C@H](O)CO)CC4)cc3OC)nn12)S(C)(=O)=O ?
Reply | 100 to 1000 nM

Ask | Okay, and COc1ccccc1-c1ccc2cnc(Nc3ccc4c(c3)C(NC(=O)OC(C)(C)C)C(O)C4)nn12 (stereo not shown) ?
Reply | < 100 nM

Ask | Okay, and COc1ccncc1-c1ccc2cnc(Nc3ccc(N4CCN(C)CC4)cc3)nn12 ?
Reply | < 100 nM

Ask | Okay, and COc1cc2c(cc1Nc1ncc3ccc(-c4ccccc4OC)n3n1)CN(C(=O)OC(C)(C)C)C2 ?
Reply | 1000 to 10000 nM

###

molecular target: ALK (Homo sapiens); construct: host or cells: baculovirus expression system; assay: ALK Kinase Assay (ELISA/TRF, PLC-γ substrate); assay type: biochemical; conditions: ALK kinase inhibition, 1 μM ATP; read-out: ALK Potency
This listing pairs compounds with measured IC50.

COMPOUND: COc1ccc(-c2ccc3cnc(Nc4cccc(C5C(=O)N(C)CCN5C)c4)nn23)cn1 (stereo not shown) [Example 1081]
MEASURED RESULT: > 10 µM

COMPOUND: COc1ccc(-c2ccc3cnc(Nc4ccc5c(c4)NC(=O)C5(C)C)nn23)cn1 [Example 658]
MEASURED RESULT: > 10 µM

COMPOUND: COc1ccc(-c2ccc3cnc(Nc4ccc(-c5csnn5)cc4)nn23)cn1 [Example 909]
MEASURED RESULT: 1 to 10 µM

Next up:
Ask | Please look up its IC50: CN1CCN(C)C(c2cccc(Nc3ncc4ccc(-c5ccc(S(C)(=O)=O)cc5)n4n3)c2)C1=O (stereo not shown) [Example 1084]
Reply | > 10 µM
